Recorded values, source PubChem BioAssay.

Entries and their composite z-score values follow.
# ASSAY SUMMARY: small-molecule microarray binders of probe aCHRDL2, primary screen, biochemical, biotinylated probe, 635/667 nm fluorescence (AID 1100)
# TEST CONTEXT: higher = more signal
REPORTED METRIC: composite z-score

[
  {
    "COMPOUND": "COc1ccc(O[C@H]2C=C[C@@H](c3ccccc3)O[C@@H]2COC(=O)NCc2cccc3ccccc23)cc1",
    "VALUE REPORTED": 0.173
  },
  {
    "COMPOUND": "CCOC(=O)[C@H](Cc1ccccc1)NC(=O)CCC1CC(OC(=O)NCc2cccc3ccccc23)CC2(CCCC(COC(=O)NCCc3ccc(Cl)cc3)O2)O1 (some centres undefined)",
    "VALUE REPORTED": -0.603
  },
  {
    "COMPOUND": "Cc1cc(C)c(-c2cc([C@H](C)ON=C[C@@H](C)[C@H](OCc3ccccc3)C(C)C)on2)c(C)c1",
    "VALUE REPORTED": -0.0987
  },
  {
    "COMPOUND": "CC(C)(C)N1C(=O)[C@H]2[C@H]3[C@H](O)[C@H](O)CC(=NNC(=O)OCc4ccccc4)[C@H]3CC[C@H]2C1=O",
    "VALUE REPORTED": -0.525
  }
]
